- test_target: FXR ligand binding domain (Homo sapiens)
- Sequence (Q96RI1 187-472 isoform Q96RI1-2): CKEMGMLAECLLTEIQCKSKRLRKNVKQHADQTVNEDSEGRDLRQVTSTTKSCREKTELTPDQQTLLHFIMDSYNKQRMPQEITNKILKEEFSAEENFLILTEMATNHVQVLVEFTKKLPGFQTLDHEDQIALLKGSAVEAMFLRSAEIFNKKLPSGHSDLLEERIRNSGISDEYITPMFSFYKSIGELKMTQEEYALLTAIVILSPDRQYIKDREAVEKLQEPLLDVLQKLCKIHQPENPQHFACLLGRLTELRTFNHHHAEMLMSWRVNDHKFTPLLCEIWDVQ
- run_description: Mammalian One Hybrid (M1H) assay, Gal4 promoter driven transactivation in HEK293 cells
- settings: Gal4-FXR-LBD luciferase reporter, 16 h
experimental_endpoint: EC50 (nM)

CC(C)(O)c1cc(F)c2nc([C@]3(O)CC[C@@H](OCc4c(-c5c(Cl)cncc5Cl)noc4C4CC4)CC3)sc2c1: 200
O=Cc1nsc2ccc([C@]3(O)CC[C@@H](OCc4c(-c5c(Cl)cccc5Cl)noc4C4CC4)CC3)cc12: 400

a = Cn1cc(C(=O)O)c2ccc([C@]3(O)CC[C@@H](OCc4c(-c5c(Cl)cccc5Cl)noc4C4CC4)CC3)cc21
b = O=C(O)C1(Oc2cc(F)cc([C@]3(O)[C@@H]4CC[C@H]3C[C@H](OCc3c(-c5c(Cl)cccc5Cl)noc3C3CC3)C4)c2)CC1
c = O=C(O)c1cc2sc([C@]3(O)CC[C@@H](OCc4c(-c5c(Cl)cccc5Cl)noc4C4CC4)CC3)nc2cc1F
d = CC(C)(O)c1onc(-c2c(Cl)cccc2Cl)c1CO[C@@H]1C[C@H]2CC[C@@H](C1)[C@]2(O)c1nc2c(F)cc(C(=O)O)cc2s1
e = O=C(O)c1ccc([C@]2(O)CC[C@@H](OCc3c(-c4c(Cl)cccc4Cl)noc3C3CC3)CC2)c(F)c1
Reorder: EC50, max to min. I would appreciate it if you listed the labels in the requested order.
c, b, d, e, a
(c: 1500 nM, b: 520 nM, d: 290 nM, e: 94 nM, a: 36 nM)
